# Tested on: adult, male CD1 mice
# protocolDetails: Mouse marble burying (mMB) assay, anxiolytic effect
# Assay type: in vivo
# details: SC injection, one-way ANOVA with Dunnett's test or t-test, read-out: Statistically significant Active Dose
Assignment: determine reported minimal effective dose for the given molecules.
Give just the numeric value; mg/kg need not be written.

IN: Recorded minimal effective dose of `Cc1nccc(C(=O)NC23CC4CC(CC(NC(=O)c5ccccn5)(C4)C2)C3)n1` , please.
OUT: 10

IN: Recorded minimal effective dose of `Cc1nccc(C(=O)NC23CC4CC(CC(NC(=O)c5cccc(F)c5)(C4)C2)C3)n1` , please.
OUT: 10

IN: Recorded minimal effective dose of `O=C(NC12CC3CC(C1)CC(NC(=O)c1cnccn1)(C3)C2)c1ccc(F)cn1` , please.
OUT: 30

IN: Recorded minimal effective dose of `Cc1cncc(C(=O)NC23CC4CC(C2)CC(NC(=O)c2cncc(C)n2)(C4)C3)n1` , please.
OUT: 30

IN: Recorded minimal effective dose of `Cc1cccc(C(=O)NC23CC4CC(C2)CC(NC(=O)c2ccnc(C)n2)(C4)C3)n1` , please.
OUT: 10

IN: Recorded minimal effective dose of `Cc1cncc(C(=O)NC23CC4CC(CC(NC(=O)c5ccc(F)cn5)(C4)C2)C3)n1` , please.
OUT: 10

IN: Recorded minimal effective dose of `Cc1cnc(C(=O)NC23CC4CC(CC(NC(=O)c5ccccn5)(C4)C2)C3)cn1` , please.
OUT: 30

IN: Recorded minimal effective dose of `O=C(NC12CC3CC(C1)CC(NC(=O)c1ccncn1)(C3)C2)c1cccc(F)c1` , please.
OUT: 30

IN: Recorded minimal effective dose of `O=C(NC12CC3CC(C1)CC(NC(=O)c1cnccn1)(C3)C2)c1ccccn1` , please.
OUT: 30

IN: Recorded minimal effective dose of `O=C(NC12CC3CC(C1)CC(NC(=O)c1ccccn1)(C3)C2)c1ccccn1` , please.
OUT: 30

* * *

# target: rat metabotropic glutamate receptor 5 (mGluR5) (Rattus norvegicus, UniProt P31424)
# Construct: expressed in transfected cells; host or cells: HEK 293
# Sequence (P31424 21-1171 isoform P31424-2 limits assumed): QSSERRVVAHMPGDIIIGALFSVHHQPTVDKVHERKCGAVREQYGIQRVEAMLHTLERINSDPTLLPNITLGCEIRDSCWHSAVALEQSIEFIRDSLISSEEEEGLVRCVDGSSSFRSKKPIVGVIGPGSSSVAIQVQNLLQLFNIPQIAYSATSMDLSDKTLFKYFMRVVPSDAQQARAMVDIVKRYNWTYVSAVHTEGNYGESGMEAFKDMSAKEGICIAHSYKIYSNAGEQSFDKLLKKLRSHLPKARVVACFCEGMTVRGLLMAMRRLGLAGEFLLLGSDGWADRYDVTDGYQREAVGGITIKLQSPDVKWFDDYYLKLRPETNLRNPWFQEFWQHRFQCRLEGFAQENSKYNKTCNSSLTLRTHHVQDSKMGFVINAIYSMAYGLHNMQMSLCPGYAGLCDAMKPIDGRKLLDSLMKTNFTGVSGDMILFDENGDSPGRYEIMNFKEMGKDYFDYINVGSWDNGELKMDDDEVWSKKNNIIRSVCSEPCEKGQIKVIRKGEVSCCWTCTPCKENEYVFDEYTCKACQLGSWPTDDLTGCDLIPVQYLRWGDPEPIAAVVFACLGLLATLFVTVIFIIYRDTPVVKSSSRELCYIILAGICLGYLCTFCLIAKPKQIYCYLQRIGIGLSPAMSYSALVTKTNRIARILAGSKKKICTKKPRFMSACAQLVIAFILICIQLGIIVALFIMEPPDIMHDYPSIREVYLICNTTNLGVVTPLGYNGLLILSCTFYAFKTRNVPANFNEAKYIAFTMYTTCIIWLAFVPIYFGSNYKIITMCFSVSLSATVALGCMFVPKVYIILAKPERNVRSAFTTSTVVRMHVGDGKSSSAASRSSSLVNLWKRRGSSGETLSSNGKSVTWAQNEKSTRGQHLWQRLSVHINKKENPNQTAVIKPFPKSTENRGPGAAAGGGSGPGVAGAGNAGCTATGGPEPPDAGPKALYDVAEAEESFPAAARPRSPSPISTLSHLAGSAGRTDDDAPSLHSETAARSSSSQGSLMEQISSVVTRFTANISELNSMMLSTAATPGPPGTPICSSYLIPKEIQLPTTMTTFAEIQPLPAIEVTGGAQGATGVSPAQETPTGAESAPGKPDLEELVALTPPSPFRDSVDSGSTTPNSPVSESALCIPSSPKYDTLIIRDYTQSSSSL
# protocolDetails: Calcium mobilization assay (FLIPR) for negative or positive allosteric activity, HEK 293 cells
# Type: cell-based
# details: HEK293, negative allosteric modulation, inhibition of EC80 glutamate response; read-out: FLIPR maximum inhibition
readoutLabel: Emax

IN: Recorded Emax of `Cc1cccc(C(=O)NC23CC4CC(C2)CC(NC(=O)c2cccc(N5CCC[C@@H]5CO)n2)(C4)C3)n1` , please.
OUT: 63 to 99%

IN: Recorded Emax of `CN(C)CCCN(C)c1cccc(C(=O)NC23CC4CC(CC(NC(=O)c5ccccn5)(C4)C2)C3)n1` , please.
OUT: 63 to 99%

IN: Recorded Emax of `O=C(NC12CC3CC(C1)CC(NC(=O)c1cccc(F)c1)(C3)C2)c1cccc(F)c1` , please.
OUT: 63 to 99%

IN: Recorded Emax of `O=C(NC12CC3CC(C1)CC(NC(=O)c1nccc(C(F)(F)F)n1)(C3)C2)c1ccccn1` , please.
OUT: 70 to 99%

IN: Recorded Emax of `O=C(NC12CC3CC(C1)CC(NC(=O)c1cnccn1)(C3)C2)c1ccc(F)cn1` , please.
OUT: 63 to 99%

IN: Recorded Emax of `O=C(NC12CC3CC(C1)CC(NC(=O)c1cn4cc(Cl)ccc4n1)(C3)C2)c1cccc(F)c1` , please.
OUT: 63 to 99%

IN: Recorded Emax of `COc1ccc(C(=O)NC23CC4CC(C2)CC(NC(=O)c2ccccn2)(C4)C3)cc1` , please.
OUT: 63 to 99%

IN: Recorded Emax of `O=C(NC12CC3CC(C1)CC(NC(=O)c1onc4ccccc14)(C3)C2)c1ccccn1` , please.
OUT: 63 to 99%

IN: Recorded Emax of `Cc1cccc(C(=O)NC23CC4CC(C2)CC(NC(=O)C2CCC2)(C4)C3)n1` , please.
OUT: 63 to 99%

IN: Recorded Emax of `O=C(NC12CC3CC(C1)CC(NC(=O)c1ccnc(C(F)(F)F)n1)(C3)C2)c1ccccn1` , please.
OUT: 70 to 99%

IN: Recorded Emax of `Cc1cccc(C(=O)NC23CC4CC(C2)CC(NC(=O)c2cccc(C)n2)(C4)C3)n1` , please.
OUT: 90 to 99%

IN: Recorded Emax of `Cc1cccc(C(=O)NC23CC4CC(C2)CC(NC(=O)c2cccc(C(N)=O)n2)(C4)C3)n1` , please.
OUT: 70 to 99%

Just for reference, patent US8716284B2 is where these values come from.
